meta.source: paper PMC10932305

Provide the reported Kd of each item.
# tgt: RAR-α (retinoic acid receptor α) (Homo sapiens)
# Construct: human recombinant RARα-LBD expressed in insect cells
# Sequence (P10276 183-417 limits assumed): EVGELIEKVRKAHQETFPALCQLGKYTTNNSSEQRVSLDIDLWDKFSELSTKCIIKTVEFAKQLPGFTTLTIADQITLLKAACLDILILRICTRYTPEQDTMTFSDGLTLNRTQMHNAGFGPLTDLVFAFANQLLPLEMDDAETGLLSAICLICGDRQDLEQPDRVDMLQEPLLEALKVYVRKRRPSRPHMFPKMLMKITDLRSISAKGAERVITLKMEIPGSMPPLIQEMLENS
# procedure.details: radioligand competition binding (Eurofins Cerep)
Answer by giving the amount and then stating its unit.

| compound | measurement.label | test.value |
| --- | --- | --- |
| CC1=C(/C=C/C(C)=C/C=C/C(C)=C/c2cc(/C=C/C=C(C)/C=C/C3=C(C)CCCC3(C)C)cc[n+]2CCO)C(C)(C)CCC1 [A2E] | Kd | 1.4 µM |

Item: CC(=C/C=C/C(C)=C/C=C/C=C(C)/C=C/C=C(C)/C=C/C(=O)O)/C=C/C(=O)O [NBX, norbixin] | System: RAR-α (retinoic acid receptor α) (Homo sapiens) | Kd: 47 µM
